Data origin, for the record: patent US6514997B2

System: MRC-5 cells
Test: Cytotoxicity (CC50) in uninfected MRC-5 cells, XTT dye reduction
Assay type: cell-based, human
Details: line of ECHO-6
Listing: CC50 of selected compounds

{"compound": "CCOC(=O)/C=C/[C@H](C[C@@H]1CCNC1=O)NC(=O)[C@H](Cc1ccc(F)c(F)c1)n1cccc(NC(=O)c2cc(C)on2)c1=O [Compound 33]", "CC50": "> 10 µM"}
{"compound": "C#CC[C@@H](C(=O)N[C@H](/C=C/C(=O)OC(C)(C)C)C[C@@H]1CCNC1=O)n1cccc(NC(=O)c2cc(C)on2)c1=O [Compound 41]", "CC50": "> 10 µM"}
{"compound": "CCOC(=O)/C=C/[C@H](C[C@@H]1CCNC1=O)NC(=O)[C@H](CC)n1cccc(NC(=O)c2cc(C)on2)c1=O [Compound 26]", "CC50": "> 10 µM"}

----------
Tested on: strains of human rhinovirus (HRV)
Assay: Antirhinoviral H1-HeLa cell culture assay (XTT cell protection, EC50), other HRV strains
Format: cell-based, human rhinovirus in H1-HeLa cells
Details: Human rhinovirus sp., HRV3, H1-HeLa, HRV-3; read-out: EC50
readout.name: log10 EC50 (log10 of the value in nM)

{"compound": "C#CC[C@@H](C(=O)N[C@H](/C=C/C(=O)OC(C)(C)C)C[C@@H]1CCNC1=O)n1cccc(NC(=O)c2cc(C)on2)c1=O", "assayed.target": "strains of human rhinovirus (HRV)", "log10 EC50": 1.73}
{"compound": "CCOC(=O)/C=C/[C@H](C[C@@H]1CCNC1=O)NC(=O)[C@@H]1CCc2ccc(NC(=O)c3cc(C)on3)c(=O)n21", "assayed.target": "strains of human rhinovirus (HRV)", "log10 EC50": 1.63}
{"compound": "C#CC[C@@H](C(=O)N[C@H](/C=C/C(=O)OC(C)C)C[C@@H]1CCNC1=O)n1cccc(NC(=O)c2cc(C)on2)c1=O", "assayed.target": "strains of human rhinovirus (HRV)", "log10 EC50": 2.07}
{"compound": "Cc1cc(C(=O)Nc2cccn([C@@H](Cc3ccc(F)c(F)c3)C(=O)N[C@H](/C=C/C(=O)OC3CCC3)C[C@@H]3CCNC3=O)c2=O)no1", "assayed.target": "strains of human rhinovirus (HRV)", "log10 EC50": 0.70}
{"compound": "C#CC[C@@H](C(=O)N[C@H](/C=C/C(=O)OC1CCCC1)C[C@@H]1CCNC1=O)n1cccc(NC(=O)c2cc(C)on2)c1=O", "assayed.target": "strains of human rhinovirus (HRV)", "log10 EC50": 1.75}
{"compound": "CCOC(=O)/C=C/[C@H](C[C@@H]1CCNC1=O)NC(=O)[C@H](CC)n1cccc(NC(=O)c2cc(C)on2)c1=O", "assayed.target": "strains of human rhinovirus (HRV)", "log10 EC50": 1.46}

----------
# pEC50 listing for each entry below
Tested on: strains of human rhinovirus (HRV)
Assay: Antirhinoviral H1-HeLa cell culture assay (XTT cell protection, EC50), other HRV strains
Assay type: cell-based, human rhinovirus in H1-HeLa cells
Settings: Human rhinovirus sp., HRV25, H1-HeLa, HRV-25; read-out: EC50
pEC50: −log10 of the molar value.
readout.name: pEC50

{"compound": "C#CC[C@@H](C(=O)N[C@H](/C=C/C(=O)OCC)C[C@@H]1CCNC1=O)n1cccc(NC(=O)c2cc(C)on2)c1=O", "numeric.readout": 7.06}
{"compound": "CCOC(=O)/C=C/[C@H](C[C@@H]1CCNC1=O)NC(=O)[C@@H]1CCc2c(Cl)cc(NC(=O)c3cc(C)on3)c(=O)n21", "numeric.readout": 6.97}
{"compound": "Cc1cc(C(=O)Nc2cccn([C@@H](Cc3ccc(F)c(F)c3)C(=O)N[C@H](/C=C/C(=O)OC(C)C)C[C@@H]3CCNC3=O)c2=O)no1", "numeric.readout": 7.00}
{"compound": "CCOC(=O)/C=C/[C@H](C[C@@H]1CCNC1=O)NC(=O)[C@H](CC)n1cccc(NC(=O)c2cc(C)on2)c1=O", "numeric.readout": 6.99}
